Sourced from PubChem BioAssay AID651636

- targetDesc: G-protein coupled receptor 183 (Homo sapiens) (UniProt P32249)
- Sequence (P32249 whole entry, looked up, the tested form may be a part): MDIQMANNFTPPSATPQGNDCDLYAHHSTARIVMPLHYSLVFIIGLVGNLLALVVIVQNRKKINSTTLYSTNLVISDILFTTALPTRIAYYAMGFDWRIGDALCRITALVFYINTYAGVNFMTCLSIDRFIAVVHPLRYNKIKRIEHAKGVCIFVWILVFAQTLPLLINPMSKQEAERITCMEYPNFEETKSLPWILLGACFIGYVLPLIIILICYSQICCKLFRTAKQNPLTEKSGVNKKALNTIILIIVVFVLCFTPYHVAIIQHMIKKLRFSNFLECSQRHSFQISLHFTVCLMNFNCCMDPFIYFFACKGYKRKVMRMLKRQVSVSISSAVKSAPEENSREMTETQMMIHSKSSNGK
- assayOverview: EBI2 receptor antagonists, beta-arrestin recruitment, primary screen, cell-based, luminescence, 7a,25-OHC stimulation, uHTS (AID 651636);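 also: enzyme fragment complementation signal reports receptor beta-arrestin coupling in cells; 0% = agonist plus DMSO wells and 100% = wells without agonist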
- protocolConditions: 7a,25-OHC stimulated, at 5 µM, active compounds read high
Screen size: about 360,000 compounds; about 3,000 (0.83%) were called active. This is one part of a sample in which actives are shown more often than they occur.
Let's look at some molecules and their measured inhibition.
reportedProperty: inhibition

>>> measurement("COc1cccc(-c2cc(C(=O)N3CCN(c4ccccc4OC)CC3)no2)c1")
"56.8% (active)"
>>> measurement("O=C(NCN1CCN(CCO)CC1)c1cnccn1")
"-9.7% (inactive)"
>>> measurement("COc1ccccc1N1CCN(C(=O)Cn2nnc(-c3cccs3)n2)CC1")
"-14.3% (inactive)"
>>> measurement("COc1ccc(Nc2ncc(C(=O)N3CCN(c4ccccc4OC)CC3)c3ccccc23)cc1")
"-13.1% (inactive)"
>>> measurement("O=C(O)C1=C(C(=O)O)C2CCC1C2")
"6.95% (inactive)"
>>> measurement("COc1ccc(-c2c(-c3ccc(OC)cc3O)nc(C)nc2C(F)(F)F)cc1")
"14.5% (inactive)"
>>> measurement("COc1cccc(-c2cnc(OC(C)(C)C)nc2OC(C)(C)C)c1")
"-3.37% (inactive)"
>>> measurement("CC(C)CCN1CCN(C/C=C/c2ccco2)CC1CCO (stereo not given)")
"2.4% (inactive)"
>>> measurement("Cn1c(NC(=O)c2ccco2)c(-c2ccccc2Cl)c(=O)c2ccccc21")
"2.45% (inactive)"
>>> measurement("CCOc1ccc(S(=O)(=O)Nc2ccncc2)c(C)c1C")
"-5.77% (inactive)"

* * *

- targetDesc: G-protein coupled receptor 183 (Homo sapiens) (UniProt P32249)
- assayOverview: EBI2 receptor antagonists, beta-arrestin recruitment, primary screen, cell-based, luminescence, 7a,25-OHC stimulation, uHTS (AID 651636);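 also: enzyme fragment complementation signal reports receptor beta-arrestin coupling in cells; 0% = agonist plus DMSO wells and 100% = wells without agonist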
- protocolConditions: 7a,25-OHC stimulated, at 5 µM, active compounds read high
Out of some 360,000 compounds screened, about 3,000 (0.83%) were called active. Many of the other results were omitted from the sample, so actives are more common in it than they were.
reportedProperty: inhibition (%)

>>> measurement("Cc1ccc(CSCCNC(=O)CN(c2ccc(F)cc2)S(C)(=O)=O)cc1")
59
>>> measurement("Oc1ccc2ccccc2c1N=Nc1nccs1")
58.9
>>> measurement("CC(NC(=O)C1CCCN(S(=O)(=O)c2ccc(-n3cnnn3)cc2)C1)c1ccc(F)cc1 (stereo unspecified)")
-4.68
>>> measurement("ONC(=Nc1ccc(Cl)cc1)c1ccccc1Cl")
-0.13
>>> measurement("COc1ccc(N(CC(=O)NCCSCc2cccc(Cl)c2)S(C)(=O)=O)cc1")
-2.19
>>> measurement("CCc1nc2c(OCc3ccc(Cl)cc3Cl)cccn2c1N(C)C(=O)C(C)C")
36.4
>>> measurement("Cc1coc2c(O)cc3c(c12)OC1(N2CCCCC2)C(=O)NCCCC31 (stereo unspecified)")
9.31
>>> measurement("CC[n+]1c(C)n(-c2ccccc2)c2ccc(NC(C)=O)cc21")
3.98
>>> measurement("CN(CC(=O)Nc1ccc(Cl)cc1)C(=O)CNC(=O)c1ccc2ccccc2c1")
2.02
>>> measurement("Cc1cc(C)cc(N(CC(=O)NCCSCc2ccco2)S(C)(=O)=O)c1")
3.14
>>> measurement("CC(=O)c1ccc(OCC(=O)N(C)C2CCS(=O)(=O)C2)cc1 (stereo unspecified)")
-3.69

* * *

- targetDesc: G-protein coupled receptor 183 (Homo sapiens) (UniProt P32249)
- assayOverview: EBI2 receptor antagonists, beta-arrestin recruitment, primary screen, cell-based, luminescence, 7a,25-OHC stimulation, uHTS (AID 651636);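 also: enzyme fragment complementation signal reports receptor beta-arrestin coupling in cells; 0% = agonist plus DMSO wells and 100% = wells without agonist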
- protocolConditions: 7a,25-OHC stimulated, at 5 µM, active compounds read high
The campaign covered roughly 360,000 compounds. About 3,000 (0.83%) were called active. The entries come from a sample that favours actives as a whole.
reportedProperty: inhibition (%)

>>> measurement("CCNC(=S)N1CCN(S(=O)(=O)c2ccc(Cl)s2)CC1")
-5.4
>>> measurement("CCCCC(=O)N(C)c1c(CC)nc2c(OCc3ccc(S(C)(=O)=O)cc3)cccn12")
-7.39
>>> measurement("O=C(c1cc2ccccc2o1)N1CCN(c2cccc(C(F)(F)F)c2)CC1")
36.7
>>> measurement("CCCCC(=O)N(C)c1c(CC)nc2c(OCc3ccc(Cl)cc3Cl)cccn12")
42.4
>>> measurement("O=C(c1cc2ccccc2o1)N1CCN(S(=O)(=O)c2ccc(Cl)s2)CC1")
91.3

* * *

- targetDesc: G-protein coupled receptor 183 (Homo sapiens) (UniProt P32249)
- assayOverview: EBI2 receptor antagonists, beta-arrestin recruitment, primary screen, cell-based, luminescence, 7a,25-OHC stimulation, uHTS (AID 651636);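 also: enzyme fragment complementation signal reports receptor beta-arrestin coupling in cells; 0% = agonist plus DMSO wells and 100% = wells without agonist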
- protocolConditions: 7a,25-OHC stimulated, at 5 µM, active compounds read high
Among all 360,000 compounds or so, about 3,000 (0.83%) were called active. This excerpt belongs to a sample that is enriched for actives.
reportedProperty: inhibition (%)

>>> measurement("CC(=O)c1ccc(S(=O)(=O)N2CCN(c3nc4c(C)c(C)ccc4cc3C#N)CC2)cc1")
15.8
>>> measurement("CCOc1ccc(C(=O)N(Cc2ccc(N(C)C)cc2)C2CCS(=O)(=O)C2)cc1 (stereo not drawn)")
7.56
>>> measurement("CS(=O)(=O)N(CC(=O)N1CCN(c2ccc(F)cc2)CC1)C1CCCCC1")
-6.78
>>> measurement("O=C(CCNS(=O)(=O)c1ccccc1)NCCSc1ccc(Br)cc1")
51.2
>>> measurement("CCOc1ccc(S(=O)(=O)NCCC(=O)NCC2CCCO2)cc1 (stereo not drawn)")
-4.42
>>> measurement("COc1ccccc1CCNC(=O)C1CCN(C(=O)/C=C/c2ccccc2)CC1")
86.2
>>> measurement("Cc1cc(C)cc(NC(=O)COc2coc(CN3CCN(c4ccccc4)CC3)cc2=O)c1")
-4.06
>>> measurement("CC1(C)NC(=O)N(CC(=O)Nc2ccc(-c3ccccc3)cc2)C1=O")
-7.07
>>> measurement("CC1(Cc2ccccc2C#N)C(=O)Nc2ccc(-c3ccc4[nH]ccc4c3)cc21 (stereo not drawn)")
47.3
>>> measurement("O=C(CNC(=O)c1ccccc1Br)NCCSc1ccc(Br)cc1")
22
>>> measurement("CC1=C(C(=O)N(C(C)C)C(C)C)CC(CC(=O)NCC2CCCCC2)C(=O)N1Cc1ccccc1 (stereo not drawn)")
3.31
>>> measurement("Cc1ccc(S(=O)(=O)NCCSC(C)(C)C)cc1")
-0.527
>>> measurement("O=C(c1ccc(-n2cnnn2)cc1)N1CCN(C(c2ccccc2)c2ccccc2)CC1")
79
>>> measurement("Cc1ccc(S(=O)(=O)NCCNC(C)c2ccc(Br)cc2)cc1 (stereo not drawn)")
43.7
>>> measurement("CC(=O)c1ccc(S(=O)(=O)N2CCC(Oc3ccc(-n4cnnn4)cc3)CC2)cc1")
2.61
>>> measurement("CCOC(=O)C(C)Oc1cccc2c(=O)n(CC(=O)N3CCc4ccccc43)ccc12 (stereo not drawn)")
11.2
>>> measurement("COc1ccc(-c2cc(C3CCN(c4ncccc4[N+](=O)[O-])CC3)[nH]n2)cc1")
37.5
>>> measurement("Cc1cc(C)c(C#N)c(SCc2ccc3c(c2)OCO3)n1")
-1.67
>>> measurement("O=C(CSc1nnnn1C1CCCC1)Nc1ccc2c(c1)OCCO2")
0.834
>>> measurement("C=CCOc1c(CNn2cn[nH]c2=S)cccc1OC")
-9.2
>>> measurement("O=C(CCNS(=O)(=O)c1ccccc1)NCCCc1ccccc1")
-0.453
>>> measurement("CNC(=O)C1CC(=O)N(c2ccc(OCC(=O)Nc3ccccc3C)cc2)C1 (stereo not drawn)")
2.34
>>> measurement("CC(=O)c1ccc(S(=O)(=O)N2CCN(C(=O)/C=C/c3ccc4ccccc4n3)CC2)cc1")
62.3
>>> measurement("CSCCC(c1nnnn1Cc1ccccc1)N1CCN(C/C=C/c2ccccc2)CC1 (stereo not drawn)")
19.1
>>> measurement("Cc1c(Br)ccc(NC(=O)COc2ccccc2C(N)=O)c1C")
-2.44
>>> measurement("CCN(CC)CCNc1nc(-c2ccc(OC(F)F)cc2)c(C)s1")
7.54
>>> measurement("CCCCC[C@H](C)N1C[C@@H](COCc2ccccc2)Oc2cc(N3CC[C@@H](N(C)C)C3)ccc2S1(=O)=O")
1.65
>>> measurement("COc1ccc(OC)c(C(=O)c2coc3ccc(O)c(CN4CCOCC4)c23)c1")
37
>>> measurement("CCN1CCN(C(=O)CCN2C(=O)c3ccccc3C2=O)CC1")
5.39
>>> measurement("CC(CNS(=O)(=O)c1ccc(Br)cc1)CN(C)C (stereo not drawn)")
0.0488
>>> measurement("CC(OC(=O)c1ccc(-n2cnnn2)cc1)C(=O)NCc1ccccc1 (stereo not drawn)")
-7.1
>>> measurement("CC(=O)NC(Cc1ccccc1)C(=O)NC1CCN(c2ncccc2[N+](=O)[O-])CC1 (stereo not drawn)")
5.83
>>> measurement("CC1Oc2ccccc2N(Cc2cccnc2)C1=O (stereo not drawn)")
2.36
>>> measurement("CCN1CCN(C(=O)CSc2ccc(C)cc2)CC1")
70.3
>>> measurement("CC(C)CCNC(=O)CCNS(=O)(=O)c1ccc(Cl)cc1")
-4.48
>>> measurement("CCOC(=O)N1CCN(C(=O)CSc2nc(C)nc3c2c(=O)n(C)c(=O)n3C)CC1")
-7.04
>>> measurement("O=S1(=O)CC(N2CCN(CCO)CC2)CN1Cc1cn(Cc2cccc(Cl)c2)nn1 (stereo not drawn)")
-6.79
>>> measurement("COc1ccc(NC(=O)C[C@H]2C(=O)N(CCc3ccccc3)C[C@@H]2C)cc1")
2.26
>>> measurement("C/C(=N/NC(=O)CN1CCN(S(=O)(=O)c2ccc(Br)cc2)CC1)c1ccncc1")
6.8
>>> measurement("O=C(CSc1ccc(Cl)cc1)NC1CC1")
-0.473
>>> measurement("CC(Sc1nncn1C)C(=O)Nc1ccccc1-c1ccccc1 (stereo not drawn)")
-4.03
>>> measurement("Cc1cccc(NC(=O)CN2CCCN(S(=O)(=O)c3ccc(Br)s3)CC2)c1")
3.9
>>> measurement("CC1(C(=O)NCc2ccccc2)CSCC(=O)N1CCCn1ccnc1 (stereo not drawn)")
4.35
